This collection of values is drawn from ChEMBL document CHEMBL5223101.

# System: MDA-MB-231
# method_description: Anticancer activity against human MDA-MB-231 cells assessed as cell growth inhibition incubated for 24 hrs
# Assay type: functional, cell-based
# test_conditions: MDA-MB-231, 24 h, pooled result: one value given for 13 cell lines, strains, targets or settings
measurement_name: IC50 (µM)
Hi! Could you send only the number? It should be in µM, unit omitted.

**Q:** Endpoint output: IC50 of O=C1Nc2c(C(F)(F)F)cccc2[C@@]1(c1ccc(O)cc1)c1ccc(OC(F)(F)F)cc1 . Value?
**A:** 12.4
